Tested on: Amaranthus retroflexus
Experiment: Herbicidal activity against Amaranthus retroflexus assessed as inhibition of weed growth at 750 g/ha using postemergence treatment protocol
Format: functional
Conditions: post-emergence
Is inhibition at 750 g/ha at least 90%? Then Yes. If not, No.

Would you please look over these solved cases?
CCOCCOC(=O)/C(C#N)=C(\NCc1cc(C(C)C)no1)C(C)C
Yes
CCOCCOC(=O)/C(C#N)=C(\NCc1cc(-c2ccc(OC)cc2)no1)C(C)C
Yes
CCOCCOC(=O)/C(C#N)=C(\NCc1cc(-c2ccc(OC)cc2)no1)SC
No
CCOCCOC(=O)/C(C#N)=C(\NCc1cc(-c2ccc(Cl)cc2)no1)C(C)C
Yes

I'd appreciate it if you could say whether CCOCCOC(=O)/C(C#N)=C(\NCc1cc(Br)no1)C(C)C has inhibition at 750 g/ha at least equal to 90%.
Yes

I'd appreciate it if you could say whether CCOCCOC(=O)/C(C#N)=C(\NCc1cc(-c2ccccc2)no1)SC has inhibition at 750 g/ha at least equal to 90%.
No

I'd appreciate it if you could say whether CCOCCOC(=O)/C(C#N)=C(\NCc1cc(-c2ccc(C(C)(C)C)cc2)no1)SC has inhibition at 750 g/ha at least equal to 90%.
No

I'd appreciate it if you could say whether CCOCCOC(=O)/C(C#N)=C(\NCc1cc(-c2ccccc2)no1)C(C)C has inhibition at 750 g/ha at least equal to 90%.
Yes

I'd appreciate it if you could say whether CCOCCOC(=O)/C(C#N)=C(\NCc1cc(Br)no1)SC has inhibition at 750 g/ha at least equal to 90%.
No

* * *

Reported values of inhibition at 750 g/ha for individual entries
System: Amaranthus retroflexus
Assay: Herbicidal activity against Amaranthus retroflexus assessed as inhibition of weed growth at 750 g/ha using postemergence treatment protocol
Assay type: functional
Details: post-emergence
Output spec: scalar in %, unitless text.

Some solved cases for reference:
CCOCCOC(=O)/C(C#N)=C(\NCc1cc(-c2ccccc2Cl)no1)C(C)C
98.3
CCOCCOC(=O)/C(C#N)=C(\NCc1cc(C(C)C)no1)SC
37.6
CCOCCOC(=O)/C(C#N)=C(\NCc1ccc(Cl)nc1)SC
87.9
CCOCCOC(=O)/C(C#N)=C(\NCc1cc(-c2ccccc2OC)no1)C(C)C
100
CCOCCOC(=O)/C(C#N)=C(\NCc1cc(-c2ccc(Cl)cc2Cl)no1)SC
46

Record CCOCCOC(=O)/C(C#N)=C(\NCc1cc(-c2ccc(Cl)cc2Cl)no1)C(C)C , field inhibition at 750 g/ha: 100

Record CCOCCOC(=O)/C(C#N)=C(\NCc1cc(-c2ccccc2OC)no1)SC , field inhibition at 750 g/ha: 16

Record CCOCCOC(=O)/C(C#N)=C(\NCc1cc(-c2ccc(Cl)cc2)no1)SC , field inhibition at 750 g/ha: 22

* * *

Test system: Amaranthus retroflexus
Test: Herbicidal activity against Amaranthus retroflexus assessed as inhibition of weed growth at 1.5 kg/ha using postemergence treatment protocol
Format: functional
Details: post-emergence
QUANTITY NAME: inhibition at 1500 g/ha (%)
Output spec: scalar in %, unitless text.

CCOCCOC(=O)/C(C#N)=C(\NCc1cc(-c2ccccc2)no1)SC
100

Record CCOCCOC(=O)/C(C#N)=C(\NCc1cc(-c2ccc(Cl)cc2)no1)SC , field inhibition at 1500 g/ha: 89.9

Record CCOCCOC(=O)/C(C#N)=C(\NCc1cc(Br)no1)C(C)C , field inhibition at 1500 g/ha: 100

Record CCOCCOC(=O)/C(C#N)=C(\NCc1cc(-c2ccccc2)no1)C(C)C , field inhibition at 1500 g/ha: 100

Record CCOCCOC(=O)/C(C#N)=C(\NCc1cc(-c2ccc(Cl)cc2)no1)C(C)C , field inhibition at 1500 g/ha: 100

Record CCOCCOC(=O)/C(C#N)=C(\NCc1cc(-c2ccccc2Cl)no1)C(C)C , field inhibition at 1500 g/ha: 100

* * *

Test system: Brassica napus
Assay: Herbicidal activity against Brassica napus (oilseed rape) assessed as inhibition of weed growth at 1.5 kg/ha using preemergence treatment protocol
Assay type: functional
Conditions: pre-emergence
Reported values of inhibition at 1500 g/ha for individual entries
Answer shape: numeric part, then the unit.

Some solved cases for reference:
CCOCCOC(=O)/C(C#N)=C(\NCc1cc(-c2ccc(Cl)cc2Cl)no1)C(C)C
21.3%
CCOCCOC(=O)/C(C#N)=C(\NCc1cc(-c2ccccc2)no1)C(C)C
28.7%
CCOCCOC(=O)/C(C#N)=C(\NCc1ccc(Cl)nc1)SC
47.6%

Record CCOCCOC(=O)/C(C#N)=C(\NCc1cc(-c2ccccc2)no1)SC , field inhibition at 1500 g/ha: 15.8%

Record CCOCCOC(=O)/C(C#N)=C(\NCc1cc(-c2ccc(C(C)(C)C)cc2)no1)SC , field inhibition at 1500 g/ha: 0%

Record CCOCCOC(=O)/C(C#N)=C(\NCc1cc(-c2ccc(Cl)cc2Cl)no1)SC , field inhibition at 1500 g/ha: 45%

Record CCOCCOC(=O)/C(C#N)=C(\NCc1cc(-c2ccccc2OC)no1)SC , field inhibition at 1500 g/ha: 19%

Record CCOCCOC(=O)/C(C#N)=C(\NCc1cc(-c2ccc(OC)cc2)no1)C(C)C , field inhibition at 1500 g/ha: 40.9%

Record CCOCCOC(=O)/C(C#N)=C(\NCc1cc(-c2ccccc2OC)no1)C(C)C , field inhibition at 1500 g/ha: 17.4%

Record CCOCCOC(=O)/C(C#N)=C(\NCc1cc(-c2ccc(C(C)(C)C)cc2)no1)C(C)C , field inhibition at 1500 g/ha: 0%

* * *

Tested on: Amaranthus retroflexus
Assay: Herbicidal activity against Amaranthus retroflexus assessed as inhibition of weed growth at 150 g/ha using postemergence treatment protocol
Type: functional
Details: post-emergence
QUANTITY NAME: inhibition at 150 g/ha (%)
Output spec: scalar in %, unitless text.

Some solved cases for reference:
CCOCCOC(=O)/C(C#N)=C(\NCc1cc(C(C)C)no1)C(C)C
0
CCOCCOC(=O)/C(C#N)=C(\NCc1cc(Br)no1)C(C)C
90
CCOCCOC(=O)/C(C#N)=C(\NCc1cc(-c2ccccc2)no1)C(C)C
78.3

Okay, now this molecule:
inhibition at 150 g/ha value, target or system Amaranthus retroflexus, for CCOCCOC(=O)/C(C#N)=C(\NCc1ccc(Cl)nc1)SC : 0

* * *

System: Amaranthus retroflexus
Test: Herbicidal activity against Amaranthus retroflexus assessed as inhibition of weed growth at 150 g/ha using postemergence treatment protocol
Type: functional
Details: post-emergence
Is inhibition at 150 g/ha at least 90%? Then Satisfied. If not, Not satisfied.

Would you please look over these solved cases?
CCOCCOC(=O)/C(C#N)=C(\NCc1cc(-c2ccc(OC)cc2)no1)C(C)C
Satisfied
CCOCCOC(=O)/C(C#N)=C(\NCc1cc(-c2ccc(Cl)cc2Cl)no1)C(C)C
Not satisfied
CCOCCOC(=O)/C(C#N)=C(\NCc1cc(-c2ccccc2Cl)no1)C(C)C
Satisfied
CCOCCOC(=O)/C(C#N)=C(\NCc1cc(-c2ccccc2OC)no1)C(C)C
Not satisfied

Please turn your attention to the following entry.
I'd appreciate it if you could say whether CCOCCOC(=O)/C(C#N)=C(\NCc1cc(-c2ccc(Cl)cc2)no1)C(C)C has inhibition at 150 g/ha at least equal to 90%.
Not satisfied

* * *

System: Brassica napus
Assay: Herbicidal activity against Brassica napus (oilseed rape) assessed as inhibition of weed growth at 1.5 kg/ha using preemergence treatment protocol
Format: functional
Conditions: pre-emergence
Reported values of inhibition at 1500 g/ha for individual entries
Output spec: scalar in %, unitless text.

CCOCCOC(=O)/C(C#N)=C(\NCc1cc(-c2ccc(OC)cc2)no1)SC
10

Record CCOCCOC(=O)/C(C#N)=C(\NCc1cc(-c2ccc(Cl)cc2)no1)C(C)C , field inhibition at 1500 g/ha: 10.6

Record CCOCCOC(=O)/C(C#N)=C(\NCc1cc(-c2ccc(Cl)cc2)no1)SC , field inhibition at 1500 g/ha: 28.4

* * *

Tested on: Amaranthus retroflexus
Assay: Herbicidal activity against Amaranthus retroflexus assessed as inhibition of weed growth at 1.5 kg/ha using postemergence treatment protocol
Format: functional
Conditions: post-emergence
Reported values of inhibition at 1500 g/ha for individual entries
Output spec: scalar in %, unitless text.

CCOCCOC(=O)/C(C#N)=C(\NCc1cc(-c2ccc(C(C)(C)C)cc2)no1)SC
100
CCOCCOC(=O)/C(C#N)=C(\NCc1cc(Br)no1)SC
99.1

Record CCOCCOC(=O)/C(C#N)=C(\NCc1cc(-c2ccc(Cl)cc2Cl)no1)SC , field inhibition at 1500 g/ha: 89.9

Record CCOCCOC(=O)/C(C#N)=C(\NCc1cc(C(C)C)no1)SC , field inhibition at 1500 g/ha: 94

Hey, just so you know, these numbers are from ChEMBL document CHEMBL3046355.
